- Tested on: C33A cervical carcinoma cells
- PROTOCOL NOTES: cells
- Type: cell-based
- REPORTED CONDITIONS: Homo sapiens, C-33-A; C33A; cellular ATP levels as described in Example 2; read-out: IC50 (μM) C33A, Effect on Cancer Cells Viability
OBSERVATION TYPE: IC50 (µM)

Worked examples, 6 molecules total:
[
  {
    "STRUCTURE SMILES STRING": "COC1=CC(c2cc3c(O)cccc3[nH]2)=N/C1=C\\c1[nH]c(C)cc1C",
    "OBSERVATION TYPE": "IC50",
    "VALUE MEASURED": 5.6
  },
  {
    "STRUCTURE SMILES STRING": "COC1=CC(c2cc3ccccc3[nH]2)=N/C1=C(\\C)c1[nH]c(C)cc1C",
    "OBSERVATION TYPE": "IC50",
    "VALUE MEASURED": 8.28
  },
  {
    "STRUCTURE SMILES STRING": "COC1=CC(c2cc3ccccc3n2CCO)=N/C1=C\\c1[nH]c(C)cc1C",
    "OBSERVATION TYPE": "IC50",
    "VALUE MEASURED": 7.17
  },
  {
    "STRUCTURE SMILES STRING": "C=CCNCc1c(C2=N/C(=C\\c3[nH]c(C)cc3C)C(OC)=C2CO)[nH]c2ccccc12",
    "OBSERVATION TYPE": "IC50",
    "VALUE MEASURED": 0.44
  },
  {
    "STRUCTURE SMILES STRING": "Cc1cc(C)c(/C=C2\\N=C(c3cc4ccc(Cl)cc4[nH]3)C=C2OC(C)C)[nH]1",
    "OBSERVATION TYPE": "IC50",
    "VALUE MEASURED": 0.261
  },
  {
    "STRUCTURE SMILES STRING": "COC1=CC(c2cc3cc(OC)c(OC)cc3n2C(=O)OC(C)(C)C)=N/C1=C\\c1[nH]c(C)cc1C",
    "OBSERVATION TYPE": "IC50",
    "VALUE MEASURED": 2.24
  }
]

P. COC1=CC(c2cc3ccccc3n2C(=O)Nc2ccc(N(C)C)cc2)=N/C1=C\c1[nH]c(C)cc1C
Q. Cc1cc(C)c(/C=C2\N=C(c3cc4c(O)cccc4[nH]3)C=C2OC(C)C)[nH]1
Task: Between item P and item Q , which reported IC50 is smaller? Reply briefly: the label of your chosen item.
Result: P

====

- PROTOCOL NOTES: physchem
- REPORTED CONDITIONS: water
OBSERVATION TYPE: solubility (µg/mL)
Give the number; µg/mL is assumed, so skip it.

Task: So what's the measured solubility for this one? COC1=CC(c2cc3ccccc3n2C(=O)CC(C)(C)c2c(C)cccc2OP(=O)(O)O)=N/C1=C/c1[nH]c(C)cc1C
Result: 10000

====

- System: C33A cervical carcinoma cells
- PROTOCOL NOTES: cells
- Type: cell-based
- REPORTED CONDITIONS: Homo sapiens, C-33-A; C33A; cellular ATP levels as described in Example 2; read-out: IC50 (μM) C33A, Effect on Cancer Cells Viability
- Excerpt: […]. […] […]. The total dimethyl sulfoxide on the cells was 1%. […] […]. As depicted in Table 4, these compounds were efficient in decreasing cellular ATP levels in HI 299 and C33A cancer cell lines. […] In addition, the anti-viral and other biological activity of compounds of the invention can be determined and evaluated in other assay systems known to the skilled artisan.
OBSERVATION TYPE: IC50 (µM)

P. Cc1cc(C)c(/C=C2\N=C(c3cc4ccc(O)cc4[nH]3)C=C2OC(C)C)[nH]1
Q. COC1=CC(c2[nH]c3ccccc3c2I)=N/C1=C\c1[nH]c(C)c(I)c1C
Task: Between item P and item Q , which reported IC50 is smaller? Reply briefly: the label of your chosen item.
Result: P

A. COC1=CC(c2cc3ccccc3n2C(=O)Nc2ccc(OCc3ccccc3)cc2)=N/C1=C\c1[nH]c(C)cc1C
B. COC1=CC(c2cc3cc(OC)c(OC)cc3[nH]2)=N/C1=C\c1[nH]c(C)cc1C
C. COC1=C(CO)C(c2[nH]c3ccccc3c2CNCCO)=N/C1=C\c1[nH]c(C)cc1C
Task: Arrange the 3 compounds from largest to smallest IC50. Your task in answering is to list the labels in the requested order.
Result: C, B, A
(C: 2.21 µM, B: 0.25 µM, A: 0.145 µM)

a. COc1cccc(COC2=CC(c3cc4ccccc4[nH]3)=N/C2=C\c2[nH]c(C)cc2C)c1
b. COC1=C(CO)C(c2[nH]c3ccccc3c2CNC(C)C)=N/C1=C\c1[nH]c(C)cc1C
Task: Between item a and item b , which reported IC50 is smaller? Reply briefly: the label of your chosen item.
Result: a
